System: HBV rcDNA
Assay protocol: HepDE19 assay with bDNA quantitation of HBV rcDNA
Type: cell-based, hepatitis B virus (HBV)
Settings: read-out: DE-19bDNA EC50; HepDE19 cells, 7 day incubation, rcDNA measured by Quantigene 2.0 bDNA assay, top concentration 25 μM
Attribute measured: EC50 (nM)

Compound | Attribute measured | Relation symbol | Numeric result
CC(c1c[nH]c(=O)c2cc(F)c(F)cc12)N(C)C(=O)c1cc2cc(F)ccc2[nH]1 (single isomer, unassigned) [Compound 9] | EC50 | = | 1600
CC(c1c[nH]c(=O)c2cc(F)c(F)cc12)N(C)C(=O)c1cc2cc(F)ccc2[nH]1 (single isomer, unassigned) [Compound 10] | EC50 | = | 20
CC(c1c[nH]c(=O)c2cc(F)c(F)cc12)N(C)C(=O)c1cc2ccccn2c1 (single isomer, unassigned) | EC50 | = | 5700
CC(c1c[nH]c(=O)c2cc(F)c(F)cc12)N(C)C(=O)c1ccccc1 (single isomer, unassigned) [Compound 127] | EC50 | = | 3530
CC(c1c[nH]c(=O)c2cc(F)c(F)cc12)N(C)C(=O)c1cc2cccnc2[nH]1 (single isomer, unassigned) [Compound 52] | EC50 | ≥ | 25000
CC(c1c[nH]c(=O)c2cc(F)c(F)cc12)N(C)C(=O)c1ccc(Cl)cc1 (single isomer, unassigned) [Compound 131] | EC50 | = | 14700
CC(c1c[nH]c(=O)c2c(F)c(F)ccc12)N(C)C(=O)c1cc2ccccn2c1 (single isomer, unassigned) [Compound 71] | EC50 | = | 6500
COc1ncc(C(C)N(C)C(=O)c2ccc(Br)cc2)c2cc(F)c(F)cc12 (single isomer, unassigned) [Compound 163] | EC50 | = | 440
CC(c1c[nH]c(=O)c2cc(F)c(F)cc12)N(CCCO)C(=O)Cc1cc2ccccc2[nH]1 (single isomer, unassigned) [Compound 83] | EC50 | ≥ | 25000
COc1ncc(C(C)N(C)C(=O)c2ccc(Br)cc2)c2cc(F)c(F)cc12 (single isomer, unassigned) [Compound 164] | EC50 | = | 17200
CC(c1c[nH]c(=O)c2cc(F)c(F)cc12)N(CCCO)C(=O)Cc1cc2ccccc2[nH]1 (single isomer, unassigned) [Compound 84] | EC50 | = | 420
CC(c1c[nH]c(=O)c2c(F)c(F)ccc12)N(C)C(=O)c1cc2ccccn2c1 (single isomer, unassigned) [Compound 72] | EC50 | = | 140
CC(c1c[nH]c(=O)c2cc(F)c(F)cc12)N(C)C(=O)c1ccc(Cl)cc1 (single isomer, unassigned) [Compound 132] | EC50 | = | 60
CC(c1c[nH]c(=O)c2cc(F)c(F)cc12)N(C)C(=O)c1cc2cccnc2[nH]1 (single isomer, unassigned) [Compound 51] | EC50 | = | 790
CC(c1c[nH]c(=O)c2cc(F)c(F)cc12)N(C)C(=O)c1ccccc1 (single isomer, unassigned) [Compound 128] | EC50 | > | 25000
